Please find below pIC50 data on Vascular endothelial growth factor receptor 2 (Homo sapiens) compiled from the literature.
pIC50: −log10 of the molar value.

smiles structure: Cc1cc(NC(=O)Nc2cccc(OC(F)(F)F)c2)ccc1Oc1ccnc(NC(=O)C2CC2)c1
pIC50: 7.96

smiles structure: COc1cc(OC)cc(N(CCO)c2ccc3ncc(-c4ccc(N)nc4)nc3c2)c1
pIC50: 6.75

smiles structure: CC(C)n1cc(C(=O)Nc2ccc(Oc3ccnc4cc(OCCCCCCN(C)C)c5c(c34)OCCO5)c(F)c2)c(=O)n(-c2ccc(F)cc2)c1=O
pIC50: 6.30 to 7.30

smiles structure: N#CCCCOc1cc2nccc(Oc3ccc(NC(=O)Nc4ccc(F)cc4F)c(F)c3)c2cc1C#N
pIC50: 7.54

smiles structure: COc1ncc(-c2cnc3[nH]cc(C(=O)c4c(F)ccc(NS(=O)(=O)c5cc(F)ccc5F)c4F)c3c2)cn1
pIC50: ≥ 5.00

smiles structure: O=C(Nc1cc(F)cc(Oc2cc(NC(=O)C3CC3)ncn2)c1)Nc1ccc(Cl)c(C(F)(F)F)c1
pIC50: 7.57

smiles structure: CS(=O)(=O)c1cccc(-c2cnc3[nH]cc(C(=O)c4c(F)ccc(F)c4F)c3c2)c1
pIC50: ≥ 5.00

smiles structure: COc1cc2nccc(Oc3ccc(NC(=S)NCc4ccc(Cl)cc4)c(Cl)c3)c2cc1C(N)=O
pIC50: 6.00 to 6.70

smiles structure: CCCS(=O)(=O)Nc1ccc(F)c(C(=O)c2c[nH]c3ncc(-c4cnn(Cc5ccccc5)c4)cc23)c1F
pIC50: ≥ 5.00

smiles structure: O=C(Nc1ccc(Oc2cc(-c3ccc[nH]3)ncn2)cc1)Nc1ccc(Cl)c(C(F)(F)F)c1
pIC50: ≥ 5.00

smiles structure: C=CC(=O)Nc1cc2c(Nc3ccc(Br)cc3F)ncnc2cc1OCCNC(=O)C(=O)O
pIC50: 7.08

smiles structure: O=C(Nc1cccc(Oc2cc(-c3ncco3)ncn2)c1)Nc1ccc(Cl)c(C(F)(F)F)c1
pIC50: ≥ 5.00

smiles structure: CCn1cc(C(=O)Nc2ccc(Oc3ccnc4cc(OCC(C)(C)O)c5c(c34)OCCO5)cc2)c(=O)n(-c2ccc(F)cc2)c1=O
pIC50: 5.30 to 6.30

smiles structure: N#Cc1ccnc2[nH]cc(C(=O)c3c(F)ccc(NS(=O)(=O)c4ccccc4F)c3F)c12
pIC50: ≥ 5.00

smiles structure: NCc1cccc(-c2nccn3nc(Nc4ccc(N5CCOCC5)cc4)nc23)c1
pIC50: > 6.52
